src = paper PMC10180065

test system: NALM6; assay: MTT cytotoxicity, NALM6; format: cell-based, human; conditions: Homo sapiens, NALM-6, 48 h incubation, read-out: Cytotoxic effect, IC50
MEASURED METRIC: IC50

INSERT INTO assay_data (compound, measured_metric, experimental_result) VALUES
  ('Cc1cc(O)n(C(N)=S)n1 [1d]', 'IC50', '> 200 µM'),
  ('Cc1cc(C)n(C(N)=S)n1 [1a]', 'IC50', '> 200 µM'),
  ('NC(=S)n1nc(-c2ccccc2)cc1O [1c]', 'IC50', '152 µM');

Let's switch to this compound now.
Hi! What's the reported IC50 for CCc1cc(CC)n(C(N)=S)n1 [1b] on NALM6?
> 200 µM

====

test system: HCT116; experiment: MTT cytotoxicity, HCT116; type: cell-based, human; conditions: 48 h incubation, read-out: Cytotoxic effect, IC50
pIC50: −log10 of the molar value.
MEASURED METRIC: pIC50

// pIC50 lookup, key: Cl.[Cl-].[Cl-].[Cl-].[Ru+3].c1c[nH]cn1.c1c[nH]cn1 [NAMI-A, reference compound]
< 3.70

====

system: NALM6; experiment: MTT cytotoxicity, NALM6; type: cell-based, human; details: 48 h incubation, read-out: Cytotoxic effect, IC50
MEASURED METRIC: pIC50
pIC50 field: float, defined as -log10 of concentration (mol/L).

Request the reported pIC50 associated with CCc1cc(CC)n(C(N)=S)n1.Cc1ccc(C(C)C)cc1.[Cl-].[Cl][Ru+] [2b]
4.40

Given the entry Cc1ccc(C(C)C)cc1.NC(=S)n1nc(-c2ccccc2)cc1O.[Cl-].[Cl][Ru+] [2c] , report its measured pIC50.
4.93

Query (compound): Cc1cc(C)n(C(N)=S)n1.Cc1ccc(C(C)C)cc1.[Cl-].[Cl][Ru+] [2a] ; field requested: pIC50
4.29

Report pIC50 for Cc1ccc(C(C)C)cc1.F[P-](F)(F)(F)(F)F.NC(=S)n1nc(-c2ccccc2)cc1O.[Cl-].[Ru+2] [3c] please.
4.70

I have this compound here, Cc1cc(C)n(C(N)=S)n1.Cc1ccc(C(C)C)cc1.F[P-](F)(F)(F)(F)F.[Cl-].[Ru+2] [3a] , and I need its recorded pIC50.
4.34

Fill blank: measured pIC50 of the compound CCc1cc(CC)n(C(N)=S)n1.Cc1ccc(C(C)C)cc1.F[P-](F)(F)(F)(F)F.[Cl-].[Ru+2] [3b] is ____.
4.73

====

tested on: A549; test: MTT cytotoxicity, A549; type: cell-based, human; settings: 48 h incubation, read-out: Cytotoxic effect, IC50
MEASURED METRIC: IC50 (µM)
Write the number in µM without appending the unit.

INSERT INTO assay_data (molecule_smiles, experimental_result) VALUES
  ('CCc1cc(CC)n(C(N)=S)n1.Cc1ccc(C(C)C)cc1.F[P-](F)(F)(F)(F)F.[Cl-].[Ru+2]', 162);

Now consider a different molecule.
Entry under review: `Cc1cc(O)n(C(N)=S)n1.Cc1ccc(C(C)C)cc1.F[P-](F)(F)(F)(F)F.[Cl-].[Ru+2]` . Reported IC50?
152

====

test system: HL60; test: MTT cytotoxicity, HL60; type: cell-based, human; details: 48 h incubation, read-out: Cytotoxic effect, IC50
MEASURED METRIC: IC50 (µM)
// return numeric value only (unit: µM, not printed)

Answered examples (5):
INSERT INTO measurements (molecule_smiles, tested_system, experimental_result) VALUES
  ('Cc1cc(C)n(C(N)=S)n1.Cc1ccc(C(C)C)cc1.F[P-](F)(F)(F)(F)F.[Cl-].[Ru+2]', 'HL60', 79.7),
  ('CCc1cc(CC)n(C(N)=S)n1.Cc1ccc(C(C)C)cc1.[Cl-].[Cl][Ru+]', 'HL60', 80.8),
  ('Cc1ccc(C(C)C)cc1.F[P-](F)(F)(F)(F)F.NC(=S)n1nc(-c2ccccc2)cc1O.[Cl-].[Ru+2]', 'HL60', 70.4),
  ('Cc1ccc(C(C)C)cc1.NC(=S)n1nc(-c2ccccc2)cc1O.[Cl-].[Cl][Ru+]', 'HL60', 86.5),
  ('Cc1cc(C)n(C(N)=S)n1.Cc1ccc(C(C)C)cc1.[Cl-].[Cl][Ru+]', 'HL60', 88.9);

Here is the next item to consider.
Observed IC50 on HL60 for `CCc1cc(CC)n(C(N)=S)n1.Cc1ccc(C(C)C)cc1.F[P-](F)(F)(F)(F)F.[Cl-].[Ru+2]` , please.
52.9

====

tested on: HT29; test: MTT cytotoxicity, HT29; format: cell-based, human; conditions: 48 h incubation, read-out: Cytotoxic effect, IC50
MEASURED METRIC: pIC50
// pIC50: -log10(molar conc.)

INSERT INTO measurements (molecule_smiles, experimental_result) VALUES
  ('Cc1cc(O)n(C(N)=S)n1.Cc1ccc(C(C)C)cc1.[Cl-].[Cl][Ru+]', 3.77),
  ('Cc1cc(O)n(C(N)=S)n1.Cc1ccc(C(C)C)cc1.F[P-](F)(F)(F)(F)F.[Cl-].[Ru+2]', 3.73);

Item under review: `Cc1ccc(C(C)C)cc1.F[P-](F)(F)(F)(F)F.NC(=S)n1nc(-c2ccccc2)cc1O.[Cl-].[Ru+2]` . Reported pIC50?
3.89

====

test system: HCC38; assay: MTT cytotoxicity, HCC38; format: cell-based, human; conditions: 48 h incubation, read-out: Cytotoxic effect, IC50
MEASURED METRIC: pIC50
pIC50 here is simply -log10 of the concentration when that concentration is written in mol/L.

INSERT INTO measurements (molecule_smiles, experimental_result) VALUES
  ('Cc1cc(C)n(C(N)=S)n1.Cc1ccc(C(C)C)cc1.[Cl-].[Cl][Ru+]', 4.07);

Would you mind telling me what pIC50 value was observed for `Cc1ccc(C(C)C)cc1.F[P-](F)(F)(F)(F)F.NC(=S)n1nc(-c2ccccc2)cc1O.[Cl-].[Ru+2]` ?
3.88

====

test system: Hela; assay: MTT cytotoxicity, Hela; type: cell-based, human; conditions: 48 h incubation, read-out: Cytotoxic effect, IC50
Overview of reported IC50 across a group of compounds:
Kindly answer with a numeric value in µM, unit omitted.

INSERT INTO measurements (molecule_smiles, tested_system, experimental_result) VALUES
  ('Cc1cc(O)n(C(N)=S)n1.Cc1ccc(C(C)C)cc1.[Cl-].[Cl][Ru+]', 'Hela', 111),
  ('Cc1ccc(C(C)C)cc1.NC(=S)n1nc(-c2ccccc2)cc1O.[Cl-].[Cl][Ru+]', 'Hela', 124);

Consider the record given below.
What does the record list as IC50 for `Cc1ccc(C(C)C)cc1.F[P-](F)(F)(F)(F)F.NC(=S)n1nc(-c2ccccc2)cc1O.[Cl-].[Ru+2]` ?
78.8

====

Listed here are molecules together with their documented Lipophilicity, RM.
assay: Lipophilicity by RP-TLC; type: physicochemical; parameters: key: RM = log(1/Rf − 1), Rf = a/b; details: eluent AcCN: H2O at 30–70% v/v, 22 °C
Number only, please.

Before answering, review these 5 worked examples.
INSERT INTO results (molecule_smiles, experimental_result) VALUES
  ('Cc1cc(C)n(C(N)=S)n1.Cc1ccc(C(C)C)cc1.[Cl-].[Cl][Ru+]', 2.40),
  ('Cc1cc(O)n(C(N)=S)n1.Cc1ccc(C(C)C)cc1.F[P-](F)(F)(F)(F)F.[Cl-].[Ru+2]', 2.39),
  ('Cc1cc(C)n(C(N)=S)n1.Cc1ccc(C(C)C)cc1.F[P-](F)(F)(F)(F)F.[Cl-].[Ru+2]', 2.55),
  ('CCc1cc(CC)n(C(N)=S)n1.Cc1ccc(C(C)C)cc1.[Cl-].[Cl][Ru+]', 2.59),
  ('Cc1ccc(C(C)C)cc1.F[P-](F)(F)(F)(F)F.NC(=S)n1nc(-c2ccccc2)cc1O.[Cl-].[Ru+2]', 2.61);

Data request, read-out Lipophilicity, RM, for `Cc1cc(C)n(C(N)=S)n1`
2.32

Request the reported Lipophilicity, RM associated with `CCc1cc(CC)n(C(N)=S)n1.Cc1ccc(C(C)C)cc1.F[P-](F)(F)(F)(F)F.[Cl-].[Ru+2]`
2.73

Name the recorded Lipophilicity, RM for `Cc1ccc(C(C)C)cc1.NC(=S)n1nc(-c2ccccc2)cc1O.[Cl-].[Cl][Ru+]` .
2.27

====

system: HCC38; assay: MTT cytotoxicity, HCC38; format: cell-based, human; details: 48 h incubation, read-out: Cytotoxic effect, IC50
MEASURED METRIC: IC50 (µM)
Record the value in µM, omitting the unit from your answer.

INSERT INTO measurements (compound, value_units, experimental_result) VALUES
  ('CCc1cc(CC)n(C(N)=S)n1.Cc1ccc(C(C)C)cc1.[Cl-].[Cl][Ru+] [2b]', 'µM', 63.7);

Kindly consider the entry below.
Would you kindly share the measured IC50 for Cc1cc(O)n(C(N)=S)n1.Cc1ccc(C(C)C)cc1.F[P-](F)(F)(F)(F)F.[Cl-].[Ru+2] [3d] ?
188
